Data origin, for the record: the NIST ThermoML archive (doi:10.1016/j.jct.2008.08.007)

Give measured molar heat capacity at constant pressure for each item. Keep answers brief.
# assay-text: molar heat capacity at constant pressure
# experimental-conditions: 358.15 K; 101.33 kPa; Crystal; Small sample (50 mg) DSC
Write the answer as a number in J/K/mol, unit excluded.

QUERY: Report molar heat capacity at constant pressure for OC[C@H]1O[C@H](O)[C@H](O)[C@@H](O)[C@@H]1O please.
RESULT: 267.7

QUERY: Fill blank: measured molar heat capacity at constant pressure of the compound OC[C@H]1OC(O)C[C@@H](O)[C@@H]1O (stereo partly drawn) is ____.
RESULT: 244

QUERY: Using the record for CC(=O)N[C@@H](C=O)[C@@H](O)[C@H](O)[C@H](O)CO , report its molar heat capacity at constant pressure.
RESULT: 332

QUERY: Consider the compound O=C[C@H](O)[C@@H](O)[C@@H](O)[C@H](O)CO [(+)-galactose] and give its measured molar heat capacity at constant pressure.
RESULT: 265.1

QUERY: Look up molar heat capacity at constant pressure: O=C[C@@H](O)[C@@H](O)[C@H](O)[C@H](O)CO
RESULT: 260.2

QUERY: Quick check: molar heat capacity at constant pressure of O=C[C@H](O)[C@@H](O)[C@H](O[C@H]1O[C@H](CO)[C@@H](O[C@H]2O[C@H](CO)[C@@H](O)[C@H](O)[C@H]2O)[C@H](O)[C@H]1O)[C@H](O)CO ?
RESULT: 823.7

QUERY: # lookup: molar heat capacity at constant pressure of OC[C@H]1O[C@@H]2O[C@H]3[C@H](O)[C@@H](O)[C@@H](O[C@H]4[C@H](O)[C@@H](O)[C@@H](O[C@H]5[C@H](O)[C@@H](O)[C@@H](O[C@H]6[C@H](O)[C@@H](O)[C@@H](O[C@H]7[C@H](O)[C@@H](O)[C@@H](O[C@H]1[C@H](O)[C@H]2O)O[C@@H]7CO)O[C@@H]6CO)O[C@@H]5CO)O[C@@H]4CO)O[C@@H]3CO
RESULT: 1502.7

QUERY: // returns reported molar heat capacity at constant pressure for input O=C(CO)[C@@H](O)[C@H](O)[C@H](O)CO
RESULT: 290.4
